Taken from ChEMBL document CHEMBL1201862.

GI50 reference
# Test system: SN12C
# Test name: NCI tumour cell line growth inhibition, 48 h
The source made the active and inactive calls. Rule as the data show it: active = GI50 up to about 1.1 µM and inactive = higher.

{"columns": ["Compound", "GI50"],
 "data": [
  ["O=C(CCC(=O)Nc1ccc(Cl)c(Cl)c1)CC(=O)c1ccc(F)cc1", "> 100 µM (inactive)"],
  ["Brc1ccc(-c2nnc(-c3nn(-c4ccccc4)c4nc5ccccc5nc34)o2)cc1", "> 100 µM (inactive)"],
  ["Nc1ccc(CCN2CCN(c3cccc(C(F)(F)F)c3)CC2)cc1", "> 100 µM (inactive)"],
  ["O=C1CS(=O)(=O)C(c2cccc(Oc3ccccc3)c2)N1c1cccc(Cl)c1 (configuration not stated)", "31.8 µM (inactive)"],
  ["CCOP(=O)(OCC)/C(=C\\N1C(=O)CC(=O)NC1=S)C(=O)OC", "> 100 µM (inactive)"],
  ["CCOC(=O)C1(C(=O)OCC)OC(C)=NC1(C(=O)OC)C(=O)OC", "> 100 µM (inactive)"],
  ["Cc1cccc(N2C(=O)C3c4[nH]c5ccccc5c4C4CCC(C(C)(C)C)CC4C3C2=O)c1C (configuration not stated)", "78.7 µM (inactive)"]
]}
